system: A549; assay: Euclidean distance of Cell Painting phenotypic profile (signed KS, 77 features) to DMSO centroid (dimensionless distance); 5 or 10 uM (library dependent); higher = stronger phenotypic change vs DMSO (phenoactivity); conditions: 48 h

| Compound | Euclidean distance |
| --- | --- |
| Cc1[nH]c(=O)c(C#N)cc1-c1ccc2nccn2c1 [Olprinone] | 1.07 |
| Oc1c(Br)cc(Br)c2cccnc12 [Broxyquinoline] | 0.988 |
| O=C(Nc1cc(C(F)(F)F)cc(C(F)(F)F)c1)c1cc(Cl)ccc1O | 0.772 |
| CO[C@H]1/C=C/O[C@@]2(C)Oc3c(C)c(O)c4c(O)c(c(/C=N/N5CCN(C)CC5)c(O)c4c3C2=O)NC(=O)/C(C)=C\C=C\[C@H](C)[C@H](O)[C@@H](C)[C@@H](O)[C@@H](C)[C@H](OC(C)=O)[C@@H]1C [Rifampin] | 0.64 |
| CO/N=C(\C(=O)N[C@@H]1C(=O)N2C(C(=O)O)=C(COC(C)=O)CS[C@H]12)c1csc(N)n1 [Cefotaxime sodium] | 0.485 |
| CNC(=O)c1cc(Oc2ccc(NC(=O)Nc3ccc(Cl)c(C(F)(F)F)c3)c(F)c2)ccn1 [Regorafenib Monohydrate] | 2.35 |

###

Measured Euclidean distance accompanies every entry in the list below.
system: DU145; test: Euclidean distance of Cell Painting phenotypic profile (signed KS, 77 features) to DMSO centroid (dimensionless distance); 5 or 10 uM (library dependent); higher = stronger phenotypic change vs DMSO (phenoactivity); conditions: 48 h
Counter-ions that a name gives are not always drawn.

| Compound | Euclidean distance |
| --- | --- |
| CC(=O)NO [Acetohydroxamic acid] | 0.954 |
| CCCC(=O)Nc1ncnc2c1ncn2[C@@H]1O[C@@H]2COP(=O)(O)O[C@H]2[C@H]1OC(=O)CCC [Dibutyryl-cAMP (Bucladesine)] | 0.663 |
| COCC[n+]1c2c(n(Cc3cnccn3)c1C)C(=O)c1ccccc1C2=O [YM155 (Sepantronium Bromide)] | 7.03 |
| CNCCc1ccccn1 [Betahistine mesylate] | 1.17 |
| Cc1onc(-c2ccccc2)c1-c1ccc(S(N)(=O)=O)cc1 [Valdecoxib] | 0.983 |
| CC(C)C(=O)Oc1ccc(CO)cc1[C@H](CCN(C(C)C)C(C)C)c1ccccc1 [Fesoterodine Fumarate] | 1.33 |

###

test system: DU145; experiment: Euclidean distance of Cell Painting phenotypic profile (signed KS, 77 features) to DMSO centroid (dimensionless distance); 5 or 10 uM (library dependent); higher = stronger phenotypic change vs DMSO (phenoactivity); details: 48 h
Counter-ions that a name gives are not always drawn.
Euclidean distance vs 1: at or above is 1 (yes), below is 0 (no).

| Compound | Class Assignment |
| --- | --- |
| Cn1cc(-c2ccc3ncc(Cc4ccc5ncccc5c4)n3n2)cn1 | 0 (no) |
| COc1ccc(/C=C/C(=O)Nc2ccccc2C(=O)O)cc1OC [Trans-Tranilast] | 0 (no) |
| CN(C)C(=O)c1cc2cnc(Nc3ccc(N4CCNCC4)cn3)nc2n1C1CCCC1 | 1 (yes) |
| Cc1c(-c2ccc(O)cc2)n(Cc2ccc(OCCN3CCCCCC3)cc2)c2ccc(O)cc12 [Bazedoxifene HCl] | 1 (yes) |
| c1ccc2c(Oc3nc(Nc4ccc(N5CCOCC5)cc4)c4ncn(C5CCCCC5)c4n3)cccc2c1 | 0 (no) |
| COc1cccc2c1C(=O)c1c(O)c3c(c(O)c1C2=O)C[C@@](O)(C(=O)CO)C[C@@H]3O[C@H]1C[C@H](N)[C@@H](O)[C@H](C)O1 [Epirubicin HCl] | 1 (yes) |
| C=CCNC(N)=S | 0 (no) |
| CCCCCCCCCCCCCCCCCC(=O)O | 0 (no) |
| CCn1cc(-c2ccnc3[nH]c(-c4cccc(CN(C)C)c4)cc23)c(-c2ccc(NC(=O)N(C)C)cc2)n1 | 1 (yes) |
| C[C@@H]1C/C=C/C=C/C=C/C=C/[C@H](O[C@@H]2O[C@H](C)[C@@H](O)[C@H](N)[C@@H]2O)C[C@@H]2O[C@](O)(C[C@@H](O)C[C@H]3O[C@@H]3/C=C/C(=O)O1)C[C@H](O)[C@H]2C(=O)O | 1 (yes) |
| C=C1CC[C@@H]2[C@](C)(CO)[C@H](O)CC[C@@]2(C)[C@H]1C/C=C1\C=COC1=O [Dehydroandrographolide] | 0 (no) |
| CCCc1cc(=O)[nH]c(=S)[nH]1 | 1 (yes) |

###

system: FB; assay: Euclidean distance of Cell Painting phenotypic profile (signed KS, 77 features) to DMSO centroid (dimensionless distance); 5 or 10 uM (library dependent); higher = stronger phenotypic change vs DMSO (phenoactivity); details: 48 h
Structures can show the parent of a compound that is named as a salt.
Result Type: Euclidean distance

| Molecule | Numeric Readout |
| --- | --- |
| O=P(O)(O)C(O)(Cn1ccnc1)P(=O)(O)O | 1.37 |
| Cc1ncc([N+](=O)[O-])n1CC(O)CCl (centres undefined) | 1.03 |
| CC(=O)OCC(COC(C)=O)OC(C)=O | 1.11 |
| Cc1ccc(/C=C2/C(=O)C3(C)CCC2C3(C)C)cc1 (centres undefined) | 0.895 |
| COc1ccc(CNCc2cccc3ccccc23)cc1 | 1.27 |
| CCC(C)n1ncn(-c2ccc(N3CCN(c4ccc(OCC5COC(Cn6cncn6)(c6ccc(Cl)cc6Cl)O5)cc4)CC3)cc2)c1=O (centres undefined) | 1.53 |
| O=c1ccn([C@@H]2O[C@H](COP(=O)(O)OP(=O)(O)OP(=O)(O)O)[C@@H](O)[C@H]2O)c(=O)[nH]1 [UTP. Trisodium Salt] | 0.666 |
| C/C=C\c1ccc(OC)cc1 [cis-Anethole] | 0.765 |
| CC[C@@H]1/C=C(\C)C[C@H](C)C[C@H](OC)[C@H]2O[C@@](O)(C(=O)C(=O)N3CCCC[C@H]3C(=O)O[C@H](/C(C)=C/[C@@H]3CC[C@@H](O)[C@H](OC)C3)[C@H](C)[C@@H](O)CC1=O)[C@H](C)C[C@@H]2OC | 1.43 |

###

tested on: HEPG2; assay: Euclidean distance of Cell Painting phenotypic profile (signed KS, 77 features) to DMSO centroid (dimensionless distance); 5 or 10 uM (library dependent); higher = stronger phenotypic change vs DMSO (phenoactivity); details: 48 h
Measured Euclidean distance accompanies every entry in the list below.
Result Type: Euclidean distance

| Compound | Numeric Readout |
| --- | --- |
| COc1ccnc(C[S+]([O-])c2nc3cc(OC(F)F)ccc3[nH]2)c1OC (centres undefined) [Pantoprazole sodium] | 1.03 |
| Cc1cccc(-c2[nH]c(C(C)(C)C)nc2-c2ccc3nccnc3c2)n1 | 1.48 |
| Cc1onc(-c2ccccc2)c1-c1ccc(S(N)(=O)=O)cc1 | 0.509 |
| CC(=O)Nc1ccc(OC(=O)c2ccccc2OC(C)=O)cc1 [Benorylate] | 0.561 |

###

system: DU145; assay: Euclidean distance of Cell Painting phenotypic profile (signed KS, 77 features) to DMSO centroid (dimensionless distance); 5 or 10 uM (library dependent); higher = stronger phenotypic change vs DMSO (phenoactivity); conditions: 48 h
Where a name gives a salt, the structure may show the parent alone.

| Compound | System | Euclidean distance |
| --- | --- | --- |
| CCOC(=O)[C@H](CCc1ccccc1)N[C@@H](C)C(=O)N1Cc2cc(OC)c(OC)cc2C[C@H]1C(=O)O [Moexipril HCl] | DU145 | 1.02 |
| NS(=O)(=O)NCCNc1nonc1/C(=N/O)Nc1ccc(F)c(Br)c1 | DU145 | 1.07 |
| CCc1nc2c(C)cc(N3CCN(CC(=O)N4CC(O)C4)CC3)cn2c1N(C)c1nc(-c2ccc(F)cc2)c(C#N)s1 [Ziritaxestat (GLPG1690)] | DU145 | 0.685 |
| C1COC(NC(C2CC2)C2CC2)=N1 [Rilmenidine Phosphate] | DU145 | 1.06 |
| CNC(=C[N+](=O)[O-])NCCSCc1csc(CN(C)C)n1 [Nizatidine] | DU145 | 2.02 |
| C[C@H]1CO[C@@H]2Cn3cc(C(=O)NCc4ccc(F)cc4F)c(=O)c(O)c3C(=O)N12 | DU145 | 0.669 |

###

test system: FB; assay: Euclidean distance of Cell Painting phenotypic profile (signed KS, 77 features) to DMSO centroid (dimensionless distance); 5 or 10 uM (library dependent); higher = stronger phenotypic change vs DMSO (phenoactivity); conditions: 48 h
Measured Euclidean distance accompanies every entry in the list below.

| Compound | System | Euclidean distance |
| --- | --- | --- |
| Cc1ccc2nc(NCCN)c3ncc(C)n3c2c1 | FB | 1.55 |
| CC1OC2(CS1)CN1CCC2CC1 (stereo not drawn) [Cevimeline] | FB | 1.55 |
| Cc1cccc(C)c1OCC(=O)N[C@@H](Cc1ccccc1)[C@@H](O)C[C@H](Cc1ccccc1)NC(=O)[C@H](C(C)C)N1CCCNC1=O [Lopinavir] | FB | 1.1 |
